assay: growth inhibitors of H69AR lung tumor, primary screen, human, duplicate replicates (AID 580); details: H69AR lung tumor cells viability, ATP luminescence, 72 h; at 10 µM; stronger effect = lower value;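 also: 100% = mean luminescence of untreated wells and 0% = no signal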
EXPERIMENTAL READOUT: viability (%)
Answer in %, number only, no unit symbol.

Take a look at these entries with their results.
Query: Using the record for O=C(O)c1cc(=O)c2c(OCC(O)COc3cccc4oc(C(=O)O)cc(=O)c34)cccc2o1 , report its viability.
Response: 106

Query: Same read-out for COc1ccc(C2CC(=O)C3=C(C2)Nc2ccccc2N(C(=O)C2CC2)C3c2cccnc2)cc1OC (stereo not given) ?
Response: 97.9

Query: Moving on to COC(=O)c1ccccc1NC(=O)C1CCCCC1C(=O)O (stereo not given)
Response: 90.3

Query: Another compound to look at: CCOC(=O)CSc1nnc(-c2ccc(S(=O)(=O)N3CCOCC3)cc2)n1-c1ccccc1
Response: 105

***
Query: Sample COC(=O)Nc1ccc(NC(C)=O)cc1 — what was its viability?
Response: 91

* * *

experiment: growth inhibitors of H69AR lung tumor, primary screen, human, duplicate replicates (AID 580); settings: H69AR lung tumor cells viability, ATP luminescence, 72 h; at 10 µM; stronger effect = lower value;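 also: 100% = mean luminescence of untreated wells and 0% = no signal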
Square brackets hold non-standard residues; d marks the D form. Peptide text beside a SMILES is read from it. ξ: configuration not given here. ξV = CC(C)C(N)C(=O)O
# true (1) = viability below 90% (exclusive); false (0) = viability at/above 90%

Query: Threshold test, viability < 90%: CCOc1cc(N2CCOCC2)c(OCC)cc1NC(=O)COC(=O)CCc1c[nH]c2ccccc12
Response: false (0)

Query: Field entry: CS(=O)(=O)N1CCCC(C(=O)NCc2ccccc2Cl)C1 (stereo not given)
Response: true (1)

Query: Check CCCCOc1ccc(CC(=O)NO)cc1 too.
Response: true (1)

Further cases:
Query: Given the entry Cc1ncc([N+](=O)[O-])n1CC(O)CCl (stereo not given) , would its reported viability be below 90%?
Response: false (0)

Query: Check CC(=O)NC(C(=O)NCC(N)=O)C(C)C (stereo not given) (Ac-[ξV]-Gly-NH2) too.
Response: false (0)

Query: Next entry: C[C@H]1C[C@H]2[C@@H]3CCC4=CC(=O)C=C[C@]4(C)[C@@]3(Cl)[C@@H](O)C[C@]2(C)[C@@]1(O)C(=O)CO
Response: false (0)

Query: Then O=C(Nc1ccc(N2CCN(Cc3ccccc3Cl)CC2)cc1)c1cccnc1 ?
Response: false (0)

Query: And O=C(CSc1nccn1-c1cccc(Cl)c1)NC1CCCC1 ?
Response: false (0)

Query: Also O=C(CN1CCN(Cc2ccc3c(c2)OCO3)CC1)Nc1ccc2c(c1)OCCO2 ?
Response: false (0)

* * *

experiment: growth inhibitors of H69AR lung tumor, primary screen, human, duplicate replicates (AID 580); settings: H69AR lung tumor cells viability, ATP luminescence, 72 h; at 10 µM; stronger effect = lower value;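 also: 100% = mean luminescence of untreated wells and 0% = no signal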
Entries and their viability
Report the value in % with no unit label.

Observe how each entry below is paired with its result.
Query: For COc1ccc(-c2cc(C(=O)NCc3ccc(Cl)cc3)no2)cc1OC , what is its reported viability?
Response: 100

Query: Next record, please: O=C(Nc1cccc(NC(=O)c2cccnc2)c1)c1cccnc1
Response: 86.7

Query: Also CCN(CC)S(=O)(=O)N1CCC(C(=O)NC2CCCc3ccccc32)CC1 (stereo unspecified) ?
Response: 90.5

Query: Same read-out for O=C(CCOc1ccccc1)NCc1ccccc1 ?
Response: 89.6

Query: Please answer likewise for COc1ccc(C)cc1S(=O)(=O)N(CC(=O)O)c1ccccc1
Response: 86.1

Query: What would you report for Cc1csc2nc3ccccc3c(=O)n12 ?
Response: 94.7

Query: And the next one, COc1ccc(N2CCN(c3ncnc4c3cnn4-c3ccc(C)cc3C)CC2)cc1 ?
Response: 66.2

Query: Then COC(=O)c1cc2ccsc2n1Cc1nc(-c2ccc(OC)cc2)oc1C ?
Response: 83.6

Query: How about this compound: O=C1CCCC2=C1C(c1ccc(Br)cc1)c1c([nH]c(=S)[nH]c1=O)N2 (stereo unspecified)
Response: 91.7

Query: Also O=C(c1cccc2ccccc12)N1CCC(N2CCN(c3ccccc3)CC2)CC1 ?
Response: 88

---
Query: Which value of viability has been reported for CCOC(=O)c1ccc(NC(=O)CCNc2c(N3CCCC3)c(=O)c2=O)cc1 in the records?
Response: 98.3

* * *

test: OD615 S. cerevisiae growth inhibition, permissive medium, pilot counter-assay, permissive growth control for S. cerevisiae lifespan shortening project (AID 705); conditions: OD615, 24 h, at 10 µM, stronger effect = higher value
Some molecules, each annotated with its measured growth inhibition.
Report the figure in % without appending any unit label.

Query: // lookup growth inhibition for CC1(C)CC(=O)N(c2ccccc2)C1(C)O (stereo unspecified)
Response: -8.08

Query: Proceed to Cn1c(/C(C#N)=C2/CCCCCN2)nc2ccccc21
Response: -8.98

Query: Same for COc1cc(C2=Nc3c(c(C)nn3-c3ccccc3)P(=O)(N3CCOCC3)O2)cc(OC)c1OC (stereo unspecified)
Response: 12.4

Query: What would you report for CN(c1nnc(N)s1)C1CCCCC1 ?
Response: 1.35

Query: // query: COc1ccc(C2C(C(=O)N3CCCCC3)CCC(=O)N2c2cc(OC)c(OC)c(OC)c2)cc1 (stereo unspecified)
Response: -15

Query: Item: COC(=O)c1ccsc1NC(=O)C1COc2ccccc2O1 (stereo unspecified)
Response: 6.25

Query: Another molecule to check: CCOC(=O)N1CCC(NC(=O)C(NC(=O)C2CCCCC2)C(C)C)CC1 (stereo unspecified)
Response: -6.95

Query: Subsequent entry: CCOC(=O)C1=CSC2=NS(=O)(=O)CCN12
Response: 3.57

Continuing:
Query: Find the recorded growth inhibition belonging to O=C(NCc1ccc2c(c1)OCO2)C1CCN(c2ccc(S(=O)(=O)N3CCCC3)cc2)CC1 and report it.
Response: -20.2

Query: And for CC1Cc2ccccc2N1C(=O)c1ccc2snnc2c1 (stereo unspecified) ?
Response: -1.7

Query: Now try O=C(C1Cc2ccccc2O1)N1CCCCC1 (stereo unspecified) .
Response: -0.465

* * *

Item-by-item account of viability
assay: reducers of endogenous Her2 protein level, primary screen, SKBR3 breast tumor cells, AlphaScreen, ATP viability (AID 461); details: 18-24 h, measured here: SKBR3 viability, ATP luminescence, at 10 µM;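 also: percent of carrier control wells set as 100% viability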
Your answer should be a plain number; it is taken to be in %.

Observe how each entry below is paired with its result.
Query: GET /values?readout=viability&item= CCOC(=O)c1ccccc1NC(=O)COC(=O)C1=COCCO1
Response: 98.5

Query: Then this compound: CCOCCCNC(=O)CC1Oc2ccc(C)cc2NC1=O (stereo unspecified)
Response: 109

Query: Continue with COc1ccc(-n2nnnc2-c2cccc(OC)c2)cc1
Response: 102

Query: Repeat with NC(=O)c1ccccc1NC(=O)CN1CCOCC1
Response: 106

Query: Another compound to look at: O=C(COc1cccc(Oc2ccccc2)c1)Nc1ncccn1
Response: 99.5

Shift focus to the following entry.
Query: Need viability of CCOC(=O)c1ccc(NC2OC(=O)c3ccccc32)cc1 (stereo unspecified) , thanks.
Response: 106

* * *

experiment: growth suppression of PTEN-deleted HCT116, pilot screen, cell-based, HCT116 clonal line, CellTiter-Glo (AID 824); settings: 60 h, at 10 µM, stronger effect = lower value;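 also: 0% = 20 µM Hyamine control and 100% = vehicle cell control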
Records with an inconclusive call do not appear.
EXPERIMENTAL READOUT: viability (%)
Give a bare numeral; the unit % is implied.

Consider the reported viability for these compounds:
Query: For CCOC(=O)N1CCN(C(=O)CS(=O)(=O)c2cn(Cc3ccccc3C)c3ccccc23)CC1 , what is its reported viability?
Response: 94

Query: Next record, please: CN(C(=O)c1ccc(=O)[nH]c1)C1(C(=O)NC2CCCCC2)CCCCC1
Response: 101

Query: Now the compound Cc1cc(Nc2ccc(F)cc2F)n2nc(C)nc2n1
Response: 98.5

Query: What would you report for O=C(Cn1cnc2c(cnn2-c2ccccc2)c1=O)NC1CCCC1 ?
Response: 95.8

Query: COc1ccc(OC)c(NC(=O)Nc2nnc(N3CCC(C)CC3)s2)c1 ?
Response: 92.7

Next:
Query: What value of measured viability is listed for Cc1cc(Nc2cc(C)on2)n2ncnc2n1 ?
Response: 99.8

Query: Proceed to COc1ccccc1S(=O)(=O)Cc1ccc(C(=O)NCc2ccc3c(c2)OCO3)o1
Response: 87.4

Query: Now consider CCN(CC)S(=O)(=O)c1ccc2oc(C(=O)NCc3ccc(F)cc3)c(C)c2c1 and answer again.
Response: 60.6

Query: Consider next the compound CS(=O)(=O)N(CC(=O)NCc1ccncc1)c1cc(Cl)cc(Cl)c1 in the same way.
Response: 105

Query: Request: Cn1nc(CC(=O)NC2CCCCCC2)c2ccccc2c1=O
Response: 76.4

Query: What do you get for CC(=O)Nc1ccccc1NC(=O)C(F)(F)F ?
Response: 108
